# System Under Test: hRIPK1 (aa 1-375) fusion protein (Homo sapiens, UniProt Q13546)
# Construct: hRIPK1 (aa 1-375) fusion protein
# Measurement Description: ADP-Glo kinase assay: catalytic activity of RIPK1 (autophosphorylation, conversion of ATP to ADP)
Value Type: pIC50
Please treat pIC50 as minus the base-10 logarithm of the molar concentration.

// known answers, use as guide
I am curious: what pIC50 value has been reported for N#Cc1cc(F)cc([C@@H]2CCON2C(=O)[C@H]2CC[C@H](Cn3ncc4cc(F)c(C#N)cc43)CC2)c1 ?
7.74

I am curious: what pIC50 value has been reported for N#Cc1cncc([C@@H]2CCON2C(=O)[C@H]2CC[C@H](Cn3cc(C#N)ccc3=O)CC2)c1 ?
6.90

I am curious: what pIC50 value has been reported for COc1cc(C[C@H]2CC[C@H](C(=O)N3OCC[C@H]3c3csc(C)n3)CC2)cn2nc(C)nc12 ?
7.03

Others:
I am curious: what pIC50 value has been reported for Cc1ccc([C@@H]2CCON2C(=O)[C@H]2CC[C@H](Cc3cc(C)c4ncnn4c3)CC2)cn1 ?
7.34

I am curious: what pIC50 value has been reported for CNC(=O)c1cc(F)cc(C[C@H]2CC[C@H](C(=O)N3OCC[C@H]3c3cc(F)cc(C#N)c3)CC2)c1 ?
8.30

I am curious: what pIC50 value has been reported for Cn1nccc1-c1cc(F)cc(C[C@H]2CC[C@H](C(=O)N3OCC[C@H]3c3cnccn3)CC2)c1 ?
7.74

I am curious: what pIC50 value has been reported for CNC(=O)c1ccc(F)c(C[C@H]2CC[C@H](C(=O)N3OCC[C@H]3c3cnccn3)CC2)c1 ?
7.85

###

# System Under Test: hRIPK1 (aa 1-375) fusion protein (Homo sapiens, UniProt Q13546)
# Construct: hRIPK1 (aa 1-375) fusion protein
# Measurement Description: ADP-Glo kinase assay: catalytic activity of RIPK1 (autophosphorylation, conversion of ATP to ADP)
Value Type: IC50 (nM)
Express your answer in nM, writing the number without its unit.

I am curious: what IC50 value has been reported for NC(=O)c1ccc2c(ccn2C[C@H]2CC[C@H](C(=O)N3OCC[C@H]3c3ccccn3)CC2)c1 [compound 255] ?
25

Others:
I am curious: what IC50 value has been reported for Cc1cc(C[C@H]2CC[C@H](C(=O)N3OCC[C@H]3c3cc(F)cc(C#N)c3)CC2)cnn1 [compound 302] ?
31

I am curious: what IC50 value has been reported for Cc1ncc(C[C@H]2CC[C@H](C(=O)N3OCC[C@H]3c3cnc(C)c(F)c3)CC2)c(C)n1 [compound 393] ?
51

I am curious: what IC50 value has been reported for O=C([C@H]1CC[C@H](Cc2cc(F)c3ncnn3c2)CC1)N1OCC[C@H]1c1cnccn1 [compound 205] ?
31

###

# System Under Test: hRIPK1 (aa 1-375) fusion protein (Homo sapiens)
# Construct: hRIPK1 (aa 1-375) fusion protein
# Sequence (Q13546 1-375): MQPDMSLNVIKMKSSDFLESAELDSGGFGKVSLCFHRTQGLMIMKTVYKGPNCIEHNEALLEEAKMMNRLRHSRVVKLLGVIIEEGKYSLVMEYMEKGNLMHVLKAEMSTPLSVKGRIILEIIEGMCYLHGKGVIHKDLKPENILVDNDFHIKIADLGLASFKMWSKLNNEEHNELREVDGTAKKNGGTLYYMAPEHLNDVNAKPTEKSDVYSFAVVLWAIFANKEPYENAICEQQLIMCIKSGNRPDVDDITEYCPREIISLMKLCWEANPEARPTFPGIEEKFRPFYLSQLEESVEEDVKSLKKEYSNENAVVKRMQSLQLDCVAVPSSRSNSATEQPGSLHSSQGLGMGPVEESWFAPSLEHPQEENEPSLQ
# Measurement Description: ADP-Glo kinase assay: catalytic activity of RIPK1 (autophosphorylation, conversion of ATP to ADP)
Value Type: IC50 (nM)
Express your answer in nM, writing the number without its unit.

// known answers, use as guide
I am curious: what IC50 value has been reported for Cc1cnc([C@@H]2CCON2C(=O)[C@H]2CC[C@H](Cc3cc(C)ncc3C)CC2)cn1 ?
25

I am curious: what IC50 value has been reported for COc1cncc([C@@H]2CCON2C(=O)[C@H]2CC[C@H](Cn3ccc4ccc(C#N)cc43)CC2)n1 ?
148

I am curious: what IC50 value has been reported for Cc1nc2ccc(C[C@H]3CC[C@H](C(=O)N4OCC[C@H]4c4ccc(F)c(F)c4)CC3)cn2n1 ?
23

Okay, now this compound:
I am curious: what IC50 value has been reported for Cc1nc2c(C)cc(C[C@H]3CC[C@](C)(C(=O)N4OCC[C@H]4c4cnc(C)c(F)c4)CC3)cn2n1 ?
15
